System: NCI-H23 lung
RUN DESCRIPTION: NCI-60 one-dose screen, 48 h
ASSAY CONTEXT: 10 µM
Compounds without any hit were thinned out: in the full panel of roughly 83,000, 20% have a hit. Calls of active or inactive are those of the source. How the source made its calls: active means growth percent below 10; inactive means the rest.
Lab note: assign the record to one of active, inactive

Consider the worked cases shown below.
query: Call for entry "NC(=O)c1cccc(-n2ccc3cc(NC(=O)Nc4ccc(Cl)c(C(F)(F)F)c4)ccc32)n1" :
result: inactive

query: For "Cc1c(C(N)=O)sc2c1c(=O)n(Cc1ccccc1)c1nnc(-c3ccc(Br)cc3)n21" , what call appears in the results of this test?
result: inactive

query: Could you please tell me the result logged for "NC(N)=N/N=C(\N=Nc1ccccc1)c1ccc(Cl)cc1" in this assay?
result: inactive

Further cases:
query: GET /call?item= "CC(C)(C)c1nn(-c2ccccc2)c2c1CC1(CN2Cc2ccc(Cl)cc2)C(=O)c2ccccc2C1=O" returns the recorded outcome of this test.
result: inactive

query: How was "CC(C)(C)OC(=O)CN1CCc2c(sc3ncnc(N/N=C/c4ccccc4Br)c23)C1" classified in this test?
result: inactive

query: Please state the recorded outcome for this compound: "Cc1ccc(Cl)cc1NC(=O)CCl"
result: inactive

query: Can you look up the reported call for "CCOC(=O)CC(S(=O)(=O)c1ccccc1)S(=O)(=O)c1ccccc1" for me?
result: inactive

query: // outcome(item) with item = "COCCn1cc(-c2nc(-c3cccnc3)cs2)c2cc(F)ccc21"
result: inactive

* * *

Test system: SNB-19 CNS
RUN DESCRIPTION: NCI-60 one-dose screen, 48 h (100 = growth as untreated, 0 = no growth, -100 = all killed)
ASSAY CONTEXT: 10 µM
Compounds without any hit were thinned out: in the full panel of roughly 83,000, 20% have a hit.
In this section, each of the compounds is paired with its reported growth.
Quick note: give the figure in %, leave out the unit.

Consider the reported growth for these compounds:
query: # query: growth of entry "CN(C)c1ccc(/C=N/NC(=O)c2cccc3ccccc23)c(Cl)c1"
result: 52.6

query: So what's the measured growth for this one? "CCOC(=O)CC(S(=O)(=O)c1ccccc1)S(=O)(=O)c1ccccc1"
result: 93.4

query: # input compound: "CC(C)Cc1ccc([C@H](C)C(=O)O)cc1" ; wanted: its growth
result: 108

query: Which value of growth has been reported for CC1C(=NC(=O)c2cnccn2)C(C)C(c2ccc(Cl)cc2)NC1c1ccncc1 (stereo unspecified) in the records?
result: 88.4

query: State the recorded growth for this entry: "N#Cc1c(N)nc(-c2cc(F)cc(C(F)(F)F)c2)nc1-c1ccccc1F"
result: 46.5

Proceeding to the next compound to report its growth.
query: Can you look up the measured growth of "CC1(C)N=C(N)N=C(N)N1c1cccc(C#N)c1" for me?
result: 66.8

* * *

Test system: COLO 205 colon
RUN DESCRIPTION: NCI-60 one-dose screen, 48 h (100 = growth as untreated, 0 = no growth, -100 = all killed)
ASSAY CONTEXT: 10 µM
This is part of a sample that, as a whole, favours compounds with a hit. Of some 83,000 tested, about 20% had one in any assay.
PROPERTY MEASURED: growth (%)
// note: answer is a bare numeric in %

Below, 2 compounds whose answers are already recorded.
query: Report growth for "CN(C)CCCN1c2ccccc2CCc2ccc(Cl)cc21" please.
result: -11.9

query: Requested read-out: growth. Entry: "CCc1c2c(nc3ccc(OC(=O)N4CCC(N5CCCCC5)CC4)cc13)-c1cc3c(c(=O)n1C2)COC(=O)[C@]3(O)CC"
result: 58.1

Continuing:
query: Given the entry "Cc1ccc(C(=O)/C=C/c2ccccc2)s1" , report its measured growth.
result: 134

* * *

Test system: OVCAR-8 ovarian
RUN DESCRIPTION: NCI-60 one-dose screen, 48 h
ASSAY CONTEXT: 10 µM
The panel holds about 83,000 compounds, 20% with a hit somewhere; the sample as a whole holds those more often. Activity calls are given as the source filed them. Rule for the calls: active = growth percent below 10; inactive = the rest.
Form entry, call: pick from active, inactive

Here are 5 compounds together with their reported answers.
query: Hi team, can someone confirm the assay call for "CCn1cc(C(=O)O)c(=O)c2cc(F)c(N3CCNCC3)cc21" ?
result: inactive

query: In this assay, the call recorded for "COc1cc(-c2nn(-c3cccc(NC(=O)NCCNS(=O)(=O)c4ccc(Cl)cc4)c3)cc2-c2ccncc2)ccc1Cl" was what?
result: active

query: Please share the test call associated with "Cc1ccc(Cl)cc1NC(=O)CCl" .
result: inactive

query: Dear colleague, could you share the recorded outcome for "COc1ccc(-c2nc(-c3nc4ccc(C)cc4[nH]3)cc3c2[nH]c2ccccc23)cc1" when you have a moment?
result: inactive

query: # fetch the recorded call for "O=C(CCl)Nc1ccc(Cc2ccc(NC(=O)CCl)cc2)cc1" here
result: active

New cases:
query: What did this assay record as the result for "COc1cc(-c2nn(-c3cccc(NC(=O)CN4CCOCC4)c3)cc2-c2cccnc2)ccc1Cl" ?
result: inactive

query: Hi team, can someone confirm the assay call for "COc1cc(/C=C/c2cc(/C=C/c3ccc(O)c(OC)c3)n(C(=O)Nc3ccccc3Cl)n2)ccc1O" ?
result: active

query: Look up the recorded call for CCCN1CN2C(=O)N3CN(CCC)CN4C(=S)N(C1)C2C34 (stereo not drawn) in this test.
result: inactive

query: Would you mind telling me which call this test gave NC(CSC(c1ccccc1)(c1ccccc1)c1cccc2ccccc12)C(=O)O (stereo not drawn) ?
result: inactive

query: What classification did "O=S(=O)(O)c1ccc(Cl)cc1" end up with in this test?
result: inactive

query: Please indicate how the test categorized "COc1cc(-c2nc3ccccc3o2)cc(CN2CCCCC2)c1O" .
result: inactive

query: Outcome logged for "COc1ccc2nc(Cl)c(Cn3nnc(Cc4ccccc4)n3)cc2c1" in this assay:
result: inactive

query: Give the logged outcome of this assay for the following compound: "COCCn1cc(-c2nc(-c3cccnc3)cs2)c2cc(F)ccc21"
result: inactive

* * *

Tested on: ACHN renal
RUN DESCRIPTION: NCI-60 one-dose screen, 48 h
ASSAY CONTEXT: 10 µM
Compounds without any hit were thinned out: in the full panel of roughly 83,000, 20% have a hit. Activity calls are given as the source filed them. How the source made its calls: active means growth percent below 10; inactive means the rest.
Please state which outcome applies, choosing from active, inactive

// below: answered compounds
query: What classification did "C=CCn1c(SCC(=O)Nc2ccc(C(=O)/C=C/c3ccc(OC)cc3)cc2)nnc1-c1ccc(OC)c(OC)c1" end up with in this test?
result: inactive

query: State the result this test recorded for "CCOC(=O)CC(S(=O)(=O)c1ccccc1)S(=O)(=O)c1ccccc1" .
result: inactive

query: Please let me know the test result on file for "COc1ccc2c(c1)C(=O)/C(=C/c1ccc([N+](=O)[O-])o1)O2" .
result: active

query: Name the outcome recorded for "CN1CCc2c(sc3nc4n(-c5ccc(Cl)cc5)cnn4c(=O)c23)C1" in the assay.
result: inactive

Next:
query: Any idea what this test logged for CC(C)c1ccc(C(C)C(=O)N(CC2=C(C(C)c3ccccn3)c3ccccc3C2)C(C)C)cc1 (stereo unspecified) ?
result: inactive

query: What is the recorded call for this compound in the test? "CC(C)Cc1ccc([C@H](C)C(=O)O)cc1"
result: inactive

query: # outcome recorded in this test, key = "CCc1ccc(C2=NN(c3ccc(S(C)(=O)=O)cc3)C(=O)CC2)cc1"
result: inactive

query: Could you kindly confirm the outcome this assay logged for "Cc1ccc(NCCNCC(C)(C)O)c2c(=O)c3ccc(Cl)cc3sc12" ?
result: active

query: Hello, I am checking results. What call was entered for "CS(=O)(=O)c1nccc(-c2c(-c3cccc(OCc4ccccc4)c3)nc3sccn23)n1" ?
result: inactive

query: I'd appreciate the recorded outcome for OCC1OC(n2ccc3c(NO)ncnc32)C(O)C1O (stereo unspecified) from this test.
result: active

query: Recorded test outcome, item "COc1cccc(-c2nc3sccn3c2-c2cccc(S(C)(=O)=O)c2)c1"
result: inactive

query: Which outcome was entered for the compound "COc1ccc2c(c1)CC=C1[C@@H]2CC[C@]2(C)C(=O)/C(=N/O)C[C@@H]12" in this test?
result: inactive

query: Entry "Cc1ccc(S(=O)(=O)N/N=C2\CCCc3ccccc32)cc1" : call = ?
result: inactive

* * *

growth values, listed per item
Tested on: NCI-H460 lung
RUN DESCRIPTION: NCI-60 one-dose screen, 48 h (100 = growth as untreated, 0 = no growth, -100 = all killed)
ASSAY CONTEXT: 10 µM
Compounds without any hit were thinned out: in the full panel of roughly 83,000, 20% have a hit.
Give a bare numeral; the unit % is implied.

Please review the entries below; each comes with its answer.
query: Given the entry "O=C1c2ccccc2C(=O)N1CCCCNc1ccccc1" , what growth was observed with NCI-H460 lung?
result: 89.3

query: Missing value: growth, NCI-H460 lung, entry "O=C(O)c1ccc(-n2cc(CNc3ccc(Oc4ccccc4)cc3)c(-c3ccccc3)n2)cc1" . Fill in?
result: 90.2

query: Value wanted: growth (NCI-H460 lung) of entry "COc1ccc([C@H]2[C@H](C(=O)Nc3cccnc3)c3ccccc3C(=O)N2c2ccccc2)cc1"
result: 91.4

***
query: Please state recorded growth (tested on NCI-H460 lung) of Nc1ccccc1NC(=O)c1ccc(CCCC(=O)Nc2ccc(C3CC3N)cc2)cc1 (centres undefined)
result: 40.4
